Consider the following compounds; for each one, report its glass transition temperature.
Give just the number in °C; leave the unit off.

Req: Sample *Oc1ccc(C(C)(C)c2ccc(OC(=O)OCCCOC(*)=O)cc2)cc1 (repeat unit) — what was its glass transition temperature?
Resp: 68.10

Req: Sample *Oc1ccc(C(C)(C)c2ccc(Oc3c(F)c(F)c(COC(c4cccc(C(OCc5c(F)c(F)c(*)c(F)c5F)(C(F)(F)F)C(F)(F)F)c4)(C(F)(F)F)C(F)(F)F)c(F)c3F)cc2)cc1 (repeat unit) — what was its glass transition temperature?
Resp: 98.00

Req: Sample *c1ccc(Oc2ccc(-c3ccc(-c4ccc(Oc5ccc(-c6c7c(c(*)c8ccccc68)C(=O)N(c6ccccc6)C7=O)cc5)c(C(F)(F)F)c4)s3)cc2C(F)(F)F)cc1 (repeat unit) — what was its glass transition temperature?
Resp: 287.00

---

glass transition temperature vs 100 °C: less than gives yes (1); not less than gives no (0).

Req: Record *CC(*)(C)C(=O)OC1CCC2CCCCC2C1 (repeat unit) : is its glass transition temperature strictly below 100 °C?
Resp: no (0)

Req: Record *C(F)(F)C(*)(F)C(F)(F)F (repeat unit) : is its glass transition temperature strictly below 100 °C?
Resp: no (0)

Req: Record *Nc1ccc(*)cc1OCCCCCCCCCCOc1ccc(C2CCC(CCCCC)CC2)cc1 (repeat unit) : is its glass transition temperature strictly below 100 °C?
Resp: yes (1)

Req: Record *Oc1ccc(C(C)(C)c2ccc(OC(=O)Nc3cccc(P(=O)(c4ccccc4)c4cccc(NC(*)=O)c4)c3)cc2)cc1 (repeat unit) : is its glass transition temperature strictly below 100 °C?
Resp: yes (1)

Req: Record *c1cccc(S(=O)(=O)NCCCCNS(*)(=O)=O)c1 (repeat unit) : is its glass transition temperature strictly below 100 °C?
Resp: yes (1)

---

Consider the following compounds; for each one, report its glass transition temperature.
Give just the number in °C; leave the unit off.

Req: Sample *CC(*)CCCCC (repeat unit) — what was its glass transition temperature?
Resp: -44.33

Req: Sample *C(=O)Nc1ccc(Cc2ccc(NC(=O)c3ccc4c(c3)C(=O)N(c3ccc(S(=O)(=O)c5ccc(N6C(=O)c7ccc(*)cc7C6=O)cc5)cc3)C4=O)cc2)cc1 (repeat unit) — what was its glass transition temperature?
Resp: 324.00

Req: Sample *O[Si](C)(C=C)O[Si](C)(C=C)O[Si](C)(C)c1ccc([Si](*)(C)C)cc1 (repeat unit) — what was its glass transition temperature?
Resp: -86.00

Req: Sample *CC(*)c1cc(C(=O)OCCCCCCCCCCCC)ccc1-c1ccc(OCCCCCCCC)cc1 (repeat unit) — what was its glass transition temperature?
Resp: 42.00

---

glass transition temperature vs 70 °C: less than gives rule met; not less than gives rule not met.

Req: Record *Oc1ccc(/N=C(\C)c2ccc(Oc3ccc(C(C)(C)c4ccc(Oc5ccc(/C(C)=N/c6ccc(*)cc6)cc5)cc4)cc3)cc2)cc1 (repeat unit) : is its glass transition temperature strictly below 70 °C?
Resp: rule not met

Req: Record *Oc1ccc(CC(NC(=O)CCc2ccc(OC(=O)COCC(*)=O)cc2)C(=O)OCCCC)cc1 (repeat unit) : is its glass transition temperature strictly below 70 °C?
Resp: rule met

Req: Record *CCCCCCOC(=O)OCCCCCCCCCOC(=O)OCCCCCCOc1ccc(Oc2ccc(O*)cc2)cc1 (repeat unit) : is its glass transition temperature strictly below 70 °C?
Resp: rule met

Req: Record *CCCNC(=O)c1ccc(C(=O)N*)cc1 (repeat unit) : is its glass transition temperature strictly below 70 °C?
Resp: rule not met

Req: Record *Oc1ccc(NC(=O)c2ccc(C(=O)Nc3ccc(*)cc3)cc2)cc1 (repeat unit) : is its glass transition temperature strictly below 70 °C?
Resp: rule not met

Req: Record *CCCCCCCCOc1c(OC)cc(/C=C/c2cc(CCCCCC)c(/C=C/c3cc(OC)c(O*)c(OC)c3)cc2CCCCCC)cc1OC (repeat unit) : is its glass transition temperature strictly below 70 °C?
Resp: rule met

Req: Record *CC(*)C(=O)OCC(F)(F)C(F)(F)OC(F)(F)C(F)(F)F (repeat unit) : is its glass transition temperature strictly below 70 °C?
Resp: rule met

Req: Record *c1ccc(N2C(=O)c3ccc(-c4ccc5c(c4)C(=O)N(c4ccc6[nH]c(*)nc6c4)C5=O)cc3C2=O)cc1 (repeat unit) : is its glass transition temperature strictly below 70 °C?
Resp: rule not met

Req: Record *CC(*)(C)C(=O)NC(=O)OC(C)COc1ccc(S(=O)(=O)c2ccc(OCC(C)O)cc2)cc1 (repeat unit) : is its glass transition temperature strictly below 70 °C?
Resp: rule not met

Req: Record *O[Si](*)(C)CCCCC (repeat unit) : is its glass transition temperature strictly below 70 °C?
Resp: rule met

Req: Record *Oc1ccc(N(c2ccc(OCCCCCC)cc2)c2ccc(-c3ccc(N(c4ccc(*)cc4)c4ccc(OCCCCCC)cc4)cc3)cc2)cc1 (repeat unit) : is its glass transition temperature strictly below 70 °C?
Resp: rule not met

Req: Record *CC(*)C(=O)c1ccc(CC)cc1 (repeat unit) : is its glass transition temperature strictly below 70 °C?
Resp: rule met

Req: Record *CC(C)(CO*)COCC(F)(F)C(F)(F)C(F)(F)F (repeat unit) : is its glass transition temperature strictly below 70 °C?
Resp: rule met

Req: Record *Oc1c(C)cc(C2(c3cc(C)c(Oc4ccc(C(=O)c5cccc(C(=O)c6ccc(*)cc6)c5)cc4)c(C)c3)CCC3CCCCC3C2)cc1C (repeat unit) : is its glass transition temperature strictly below 70 °C?
Resp: rule not met

Req: Record *CC(*)C(=O)OC(CC)CC (repeat unit) : is its glass transition temperature strictly below 70 °C?
Resp: rule met

Req: Record *Oc1cccc(S(=O)(=O)c2ccc(*)cc2)c1 (repeat unit) : is its glass transition temperature strictly below 70 °C?
Resp: rule not met

Req: Record *CC(*)(C)C(=O)OCC(C)(C)C1OCC(C)(C)CO1 (repeat unit) : is its glass transition temperature strictly below 70 °C?
Resp: rule not met

---

EXPERIMENTAL ENDPOINT: glass transition temperature (°C)
Give just the number in °C; leave the unit off.

Req: Sample *c1ccc(Oc2ccc(S(=O)(=O)c3ccc(Oc4ccc(-c5c6c(c(*)c7ccccc57)C(=O)N(C)C6=O)cc4)cc3)cc2)cc1 (repeat unit) — what was its glass transition temperature?
Resp: 314.00

Req: Sample *c1ccc(OCCN(CC)c2ccc(-c3ccc(C(=C(C#N)C#N)c4ccc(-c5ccc(N(CC)CC)cc5)s4)s3)cc2)c(-c2cc(-c3ccccc3)c3cc(Oc4ccc5nc(*)cc(-c6ccccc6)c5c4)ccc3n2)c1 (repeat unit) — what was its glass transition temperature?
Resp: 205.00

Req: Sample *Oc1cccc(NC(=O)c2ccc([Si](C)(C)c3ccc(C(*)=O)cc3)cc2)c1 (repeat unit) — what was its glass transition temperature?
Resp: 220.00

---

Consider the following compounds; for each one, report its glass transition temperature.
Give just the number in °C; leave the unit off.

Req: Sample *CC(=O)NCCCCCCNC(=O)COC(=O)CCCCC(=O)O* (repeat unit) — what was its glass transition temperature?
Resp: 19.00

Req: Sample *CCCCOc1ccc(C(=O)OC(=O)c2ccc(O*)cc2)cc1 (repeat unit) — what was its glass transition temperature?
Resp: 45.00

Req: Sample *c1ccc(Oc2ccc(C(c3ccc(Oc4ccc(-c5nnc(*)n5-c5cccc(C(F)(F)F)c5)cc4)cc3)(C(F)(F)F)C(F)(F)F)cc2)cc1 (repeat unit) — what was its glass transition temperature?
Resp: 185.00

Req: Sample *O[Si](*)(C)CCCOCCOCCOC (repeat unit) — what was its glass transition temperature?
Resp: -90.10

Req: Sample *C(=O)c1ccc2c(c1)C(=O)N(c1ccc(NC(=O)c3cccc(C(=O)Nc4ccc(N5C(=O)c6ccc(*)cc6C5=O)cc4)c3)cc1)C2=O (repeat unit) — what was its glass transition temperature?
Resp: 247.00

Req: Sample *CC(*)(CC(=O)OCCCCCCC)C(=O)OCCCCCCC (repeat unit) — what was its glass transition temperature?
Resp: -23.00

Req: Sample *C(=O)OCCCCCCCCCCOC(=O)c1ccc(NC(=O)c2ccc(N3C(=O)c4ccc(*)cc4C3=O)cc2)cc1 (repeat unit) — what was its glass transition temperature?
Resp: 102.00

Req: Sample *CC1CCC(COC(=O)c2cccc(C(=O)O*)c2)CC1 (repeat unit) — what was its glass transition temperature?
Resp: 70.00

Req: Sample *Oc1ccc(NC(=O)Nc2cc(NC(=O)Nc3ccc(*)cc3)ccc2C)cc1 (repeat unit) — what was its glass transition temperature?
Resp: 269.00

Req: Sample *CC(*)(C)C(=O)NC(C)c1ccccc1 (repeat unit) — what was its glass transition temperature?
Resp: 156.50

Req: Sample *Oc1ccc(C(C)(C)c2ccc(Oc3ccc(C(=O)c4ccc(C(C)(C)c5ccc(C(=O)c6ccc(*)cc6)cc5)cc4)cc3)cc2)cc1 (repeat unit) — what was its glass transition temperature?
Resp: 171.00

Req: Sample *Oc1cccc2ccc(Oc3ccc(NC(=O)c4ccc(C(c5ccc(C(=O)Nc6ccc(*)cc6)cc5)(C(F)(F)F)C(F)(F)F)cc4)cc3)cc12 (repeat unit) — what was its glass transition temperature?
Resp: 252.00

Req: Sample *C(=O)c1ccc2c(c1)C(=O)N(c1cccc(Cc3ccccc3N3C(=O)c4ccc(*)cc4C3=O)c1)C2=O (repeat unit) — what was its glass transition temperature?
Resp: 258.00

Req: Sample *CC(C[N-][N+]#N)(C[N-][N+]#N)CO* (repeat unit) — what was its glass transition temperature?
Resp: -30.00

Req: Sample *Oc1ccc(Oc2ccc(Nc3ccc(S(=O)(=O)c4ccc(Nc5ccc(*)cc5)cc4)cc3)cc2)cc1 (repeat unit) — what was its glass transition temperature?
Resp: 144.60

Req: Sample *Oc1ccc(C(c2ccc(OC(=O)OC3C(C)(C)C(OC(*)=O)C3(C)C)cc2)(C(F)(F)F)C(F)(F)F)cc1 (repeat unit) — what was its glass transition temperature?
Resp: 142.00
